Attribution: ChEMBL document CHEMBL4130473

experiment: AUC in C57BL/6J mouse at 10 mg/kg, po; format: ADME, organism-based; details: in vivo
MEASUREMENT_LABEL: AUC (ng·h/mL)
Report as a plain number; the unit ng·h/mL is understood.

What measured AUC goes with CCc1cc2c(s1)CCN1Cc3c(OC)ccc(OC)c3CC21 (stereo unspecified) ?
244

* * *

assay: MRT in C57BL/6J mouse at 10 mg/kg, po; type: ADME, organism-based; conditions: in vivo
MEASUREMENT_LABEL: MRT (h)
Report as a plain number; the unit h is understood.

What measured MRT goes with CCc1cc2c(s1)CCN1Cc3c(OC)ccc(OC)c3CC21 (stereo unspecified) ?
5.1
